From: patent US6573259B2

# Tested on: Human whole blood
# assay-overview: Whole blood assay for IL-1β production
# Assay type: cell-based
# conditions: Table 4, LPS 5.0 ng/ml, 16-18 hr
Here, each record is paired with measured pIC50 data.
Friendly reminder that pIC50 comes from taking -log10 of the concentration in mol/L.

compound	measured-endpoint	numeric-value
Cc1cc(C(=O)NC2N=C(c3ccccc3)c3cc(N)ccc3N(CC(=O)N[C@H](C=O)CC(=O)O)C2=O)cc(C)c1O (stereo partly shown) [Example 59]	pIC50	5.04

Here's the next entry for you.
Req: Give the measured pIC50 of O=C[C@H](CC(=O)O)NC(=O)CN1C(=O)C(NC(=O)c2nccc3ccccc23)N=C(c2ccccc2)c2ccccc21 (stereo partly shown) [Example 11] .
Resp: 5.05
